Species: Rattus norvegicus
Test: DrugMatrix - Regimen: Daily Repeat
Format: toxicity, organism-based, Sprague-Dawley
Parameters: regimen Daily Repeat, gender Male, age 6-8 weeks
Conditions: in vivo, po, 80 mg/kg, […], tissue Blood, route oral GAVAGE, dose level High, time 28 day, vehicle .5 % CMC
Measurement Name: ABSOLUTE BASOPHIL (cells/µL)
API: value field is a number in cells/µL; no unit string.

Given the entry O=c1cc(-c2ccccc2)oc2c1ccc1ccccc12 , report its measured ABSOLUTE BASOPHIL.
200

----------
Species on record: Rattus norvegicus
Assay: DrugMatrix - Regimen: Daily Repeat
Format: toxicity, organism-based, Sprague-Dawley
Set-up: regimen Daily Repeat, gender Male, age 6-8 weeks
Conditions: in vivo, ip, 160 mg/kg, 120 h, tissue Blood, route intraperitoneal, dose level High, time 5 day, vehicle 100 % SALINE
Measurement Name: ABSOLUTE BASOPHIL (cells/µL)
Give just the number in cells/µL; leave the unit off.

Which value of ABSOLUTE BASOPHIL has been reported for NCC[C@H](O)C(=O)N[C@@H]1C[C@H](N)[C@@H](O[C@H]2O[C@H](CN)[C@@H](O)[C@H](O)[C@H]2O)[C@H](O)[C@H]1O[C@H]1O[C@H](CO)[C@@H](O)[C@H](N)[C@H]1O [AMIKACIN] in the records?
42
